Entry source: patent EP1377579B1

- System: Jurkat
- ASSAY_SUMMARY: In vitro proliferation assay (MTT), Jurkat
- Assay type: cell-based
- RECORDED_CONDITIONS: Homo sapiens, read-out: Jurkat Leuk. (IC50 µM)
Where a name gives a salt, the structure may show the parent alone.
Each entry below carries its reported IC50.
OUTCOME_MEASURE: IC50 (µM)

1) Cl.Cl.N[C@H]1CC[C@H](Nc2nc(NC3CCN(C(=O)Oc4ccc(Cl)cc4)CC3)c3ncn(C4CCCC4)c3n2)CC1 [compound 88, dihydrochloride]    0.02
2) Cl.Cl.N[C@H]1CC[C@H](Nc2nc(NC3CCN(C(=O)Oc4ccc([N+](=O)[O-])cc4)CC3)c3ncn(C4CCCC4)c3n2)CC1 [compound 89, dihydrochloride]    0.07
3) Cl.Cl.N[C@H]1CC[C@H](Nc2nc(NC3CCN(C(=O)Oc4ccc(F)cc4)CC3)c3ncn(C4CCCC4)c3n2)CC1 [compound 87, dihydrochloride]    0.2
4) N[C@H]1CC[C@H](Nc2nc(NC3CCN(C(=O)Oc4ccccc4[N+](=O)[O-])CC3)c3ncn(C4CCCC4)c3n2)CC1 [compound 99, dihydrochloride]    0.11
5) COC(=O)c1ccc(OC(=O)N2CCC(Nc3nc(N[C@H]4CC[C@H](N)CC4)nc4c3ncn4C3CCCC3)CC2)cc1.Cl.Cl [compound 83, dihydrochloride]    0.14
6) COc1ccc(OC(=O)N2CCC(Nc3nc(N[C@H]4CC[C@H](N)CC4)nc4c3ncn4C3CCCC3)CC2)cc1.Cl.Cl [compound 84, dihydrochloride]    0.12
7) Cl.Cl.N[C@H]1CC[C@H](Nc2nc(NC3CCN(C(=O)Oc4ccc(Br)cc4)CC3)c3ncn(C4CCCC4)c3n2)CC1 [compound 81, dihydrochloride]    0.1
